The values you see were collected from patent US6613942B1.

Consider the following compounds; for each one, report its melting point.

COc1cc(/C=N/NC(=O)c2ccc(O)c(Cl)c2)ccc1NC(=O)c1ccc2ccccc2n1 ... 159 to 162 °C

Hi, could you look up melting point for each item in my list?
1. COc1cc(/C=N/NC(=O)c2ccc(O)c(Cl)c2)ccc1NC(=O)COc1ccc(OC(F)(F)F)cc1
2. COc1cc(NC(=O)COc2ccc(OC(F)(F)F)cc2)ccc1/C=N/NC(=O)c1ccc(O)c(Cl)c1
3. COc1cc(/C=N/NC(=O)c2ccc(O)c(N)c2)cc(OC)c1OCc1ccc(C(C)C)cc1
4. Nc1cc(C(=O)N/N=C/c2ccc(OCC(=O)N[C@@H]3CCN(Cc4ccccc4)C3)c3ccccc23)ccc1O
5. COc1cc(NC(=O)COc2ccc(Cl)cc2)ccc1/C=N/NC(=O)c1ccc(O)c(Cl)c1

Outgoing:
216 to 218 °C
235 to 236.5 °C
174 to 175 °C
187 to 192 °C
216 to 218 °C

What the record says about COc1cc(OCCN2CCc3ccccc3C2)ccc1/C=N/NC(=O)c1ccc(O)c(N)c1 : melting point is 162 to 164 °C

---

Consider the following compounds; for each one, report its melting point.

Worked cases, melting point given:
COc1cc(OCC(=O)NC2CCN(Cc3ccccc3)C2)ccc1/C=N/NC(=O)c1ccc(O)c(N)c1 (stereo not shown) ... 157 to 160 °C
CCN(CC)CCN(CCOc1ccc(/C=N/NC(=O)c2ccc(O)c(Cl)c2)c2ccccc12)Cc1ccc(OC(F)(F)F)cc1 ... 134 to 136 °C
Nc1cc(C(=O)N/N=C/c2ccc(OCC(=O)N[C@H]3CCN(Cc4ccccc4)C3)c3ccccc23)ccc1O ... 192 to 193 °C

Continue with the next compound.
What the record says about COc1cc(NC(=O)c2ccc3ccccc3n2)ccc1/C=N/NC(=O)c1ccc(O)c(Cl)c1 : melting point is 236 to 238 °C
